Each entry below carries its recorded EC50 hNPY2R 0.5% hP (CreLuc).
# system.name: T1, NPY2 receptor (human (printed as hNPY2R), UniProt P49146 1-381)
# T1 sequence (looked up): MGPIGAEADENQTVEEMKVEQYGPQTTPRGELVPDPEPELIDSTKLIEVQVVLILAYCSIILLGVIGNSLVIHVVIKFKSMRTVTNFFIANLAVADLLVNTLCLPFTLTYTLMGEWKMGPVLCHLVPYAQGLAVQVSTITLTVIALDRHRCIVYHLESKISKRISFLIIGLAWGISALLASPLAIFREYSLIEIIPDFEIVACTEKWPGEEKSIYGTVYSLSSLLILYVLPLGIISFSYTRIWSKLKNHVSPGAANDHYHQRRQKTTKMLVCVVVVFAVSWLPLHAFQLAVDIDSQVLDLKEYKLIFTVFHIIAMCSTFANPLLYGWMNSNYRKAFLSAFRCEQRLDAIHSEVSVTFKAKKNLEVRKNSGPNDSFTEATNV
# procedure.details: cell-based or functional assay
Starred links: 1 amine or outer side, 2 acyl side, 3 side chain; linkers in the order of their positions; H or OH if unused. Non-standard residues stand in square brackets, D forms with d. Groups on a side chain read outwards from the residue. No end group written: not given here. *: point of attachment. C20 diacid = O=C(O)CCCCCCCCCCCCCCCCCCC(=O)*; C18 diacid = O=C(O)CCCCCCCCCCCCCCCCC(=O)*; γGlu = O=C(O)[C@H](CCC(=O)[*:2])N[*:1]; εLys = N[C@@H](CCCCN[*:1])C(=O)[*:2]; glu = not defined here; Aib = CC(C)(N)C(=O)O
Response body: numeric value in nM, unit text excluded.

binder	EC50 hNPY2R 0.5% hP (CreLuc), nM
YXEGTFTSDYSIXLEKQAQXAFVEWLIKGGPSEPASLRHYYNWLTRQRY (Aib at 2, 13, 20; K28 side chain carries C20DA-gGlu-gGlu-gGlu-gGlu-gGlu-gGlu-eLys; C-terminal amide) [Compound 233]	12.6

Challenge: Find the measured EC50 hNPY2R 0.5% hP (CreLuc) of Y[Aib]EGTFTSDYSI[Aib]LEK(Ac)QAQ[Aib]AFVEWLIK([εLys-glu-γGlu-γGlu-γGlu-γGlu-γGlu-C20 diacid])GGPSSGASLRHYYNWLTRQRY-NH2 (reading uncertain; also: TFA salt) [Compound 192] and report it.
Response given: 20.5

Challenge: Find the measured EC50 hNPY2R 0.5% hP (CreLuc) of Y[Aib]EGTFTSDYSI[Aib]LEKQAQ[Aib]EFVQWLIK([Glu-Glu-Glu-Glu-Glu-Glu-C18 diacid])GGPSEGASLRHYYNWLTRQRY-NH2 (also: TFA salt) [Compound 179] and report it.
Response given: 18.5
